Target of assay: PRMT5/MEP50 (Homo sapiens (Human), UniProt O14744)
Sequence (O14744 other isoform, or with tags, fused parts or gaps): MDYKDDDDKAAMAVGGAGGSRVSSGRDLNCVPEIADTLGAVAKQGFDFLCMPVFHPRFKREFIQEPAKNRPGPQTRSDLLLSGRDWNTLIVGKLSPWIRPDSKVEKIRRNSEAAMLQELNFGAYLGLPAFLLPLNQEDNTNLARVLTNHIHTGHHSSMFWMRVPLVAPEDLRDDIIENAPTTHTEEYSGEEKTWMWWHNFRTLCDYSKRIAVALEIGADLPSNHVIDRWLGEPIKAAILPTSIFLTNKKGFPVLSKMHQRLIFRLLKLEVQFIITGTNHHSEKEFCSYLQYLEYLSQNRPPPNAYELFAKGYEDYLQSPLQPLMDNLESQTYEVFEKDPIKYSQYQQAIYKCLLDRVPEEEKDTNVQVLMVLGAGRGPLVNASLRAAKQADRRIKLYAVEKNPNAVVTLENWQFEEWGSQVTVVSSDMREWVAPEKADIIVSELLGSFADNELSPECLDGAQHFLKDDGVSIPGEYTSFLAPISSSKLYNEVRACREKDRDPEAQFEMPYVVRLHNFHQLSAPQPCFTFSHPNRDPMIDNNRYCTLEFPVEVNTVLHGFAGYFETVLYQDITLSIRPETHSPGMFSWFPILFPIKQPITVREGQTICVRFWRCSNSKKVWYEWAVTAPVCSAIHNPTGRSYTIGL
Sequence (Q9BQA1 other isoform, or with tags, fused parts or gaps partner): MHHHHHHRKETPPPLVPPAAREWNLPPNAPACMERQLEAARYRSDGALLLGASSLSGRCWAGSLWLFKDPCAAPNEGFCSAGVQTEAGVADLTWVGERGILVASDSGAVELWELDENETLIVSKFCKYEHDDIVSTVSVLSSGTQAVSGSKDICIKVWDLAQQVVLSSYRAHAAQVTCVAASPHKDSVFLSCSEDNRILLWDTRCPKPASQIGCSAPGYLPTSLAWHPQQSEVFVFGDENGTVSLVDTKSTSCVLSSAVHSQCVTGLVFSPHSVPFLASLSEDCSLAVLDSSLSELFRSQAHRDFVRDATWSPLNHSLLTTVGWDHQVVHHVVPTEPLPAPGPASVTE
Assay comment: PRMT5 Biochemical Assay (PRMT5/MEP50 enzyme assay on peptide substrate, 3H-SAM Flashplate)
Measured parameter: IC50

CN1CC(n2cnc3ccc(-c4ccnc(NCC(O)CN5CCc6ccccc6C5)c4)cc32)C1 (centres unmarked)	< 0.1 µM
Cn1cnc2ccc(-c3ccnc(NCC(O)CN4CCc5ccccc5C4)c3)nc21 (centres unmarked)	< 0.1 µM
CN1CCC(n2cnc3ccc(-c4ccnc(NCC(O)CN5CCc6ccccc6C5)c4)cc32)CC1 (centres unmarked)	< 0.1 µM
CCOC(=O)C1c2ccccc2CCN1CC(O)COc1cccc(-c2ccc3ncn(C)c3c2)c1 (centres unmarked)	> 40 µM
Cn1cnc2ccc(-c3cncc(NCC(O)CN4CCc5ccccc5C4)c3)cc21 (centres unmarked)	< 0.1 µM

Provide IC50 value for the following molecule: Cn1cnc2ccc(-c3ccnc(NC[C@@H](O)CN4CCc5ccccc5C4)c3)cc21 0.101 to 1 µM

Provide IC50 value for the following molecule: Cn1ncc2ccc(-c3cccc(OCC(O)CN4CCc5ccccc5C4)c3)cc21 (centres unmarked) < 0.1 µM
